# maps each entry to its Kb
target-desc: hP2Y2R (Homo sapiens)
Construct: The 1321N1 cells expressing wild-type P2Y2R (P2Y2R-1321N1) were gifted by Dr. Elizabeth Rosethorne; expressed in transfected cells; host or cells: 1321N1 astrocytoma cells (P2Y2R-1321N1), gifted
Sequence (P41231 whole entry): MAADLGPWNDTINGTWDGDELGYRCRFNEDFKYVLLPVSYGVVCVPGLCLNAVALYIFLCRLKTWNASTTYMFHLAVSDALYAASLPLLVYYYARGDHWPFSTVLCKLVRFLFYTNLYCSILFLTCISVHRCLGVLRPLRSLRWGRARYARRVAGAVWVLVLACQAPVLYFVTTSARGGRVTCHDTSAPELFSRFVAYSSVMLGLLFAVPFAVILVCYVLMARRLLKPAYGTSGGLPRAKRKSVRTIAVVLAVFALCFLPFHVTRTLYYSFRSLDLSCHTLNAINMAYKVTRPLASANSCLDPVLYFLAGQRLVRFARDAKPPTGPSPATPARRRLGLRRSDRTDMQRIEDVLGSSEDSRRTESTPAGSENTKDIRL
protocol-text: Calcium-mobilization assay in P2Y2-1321N1 cells (antagonism of UTPγS)
Assay type: cell-based
stated-conditions: Table 1; Gaddum equation, shift of UTPγS concentration–response curve by a single antagonist concentration; mean ± SEM; read-out: hP2Y2 pKb (converted)
Enter your answer as a number in nM; do not include the unit.

These solved cases illustrate the format of a correct answer.
{"columns": ["compound", "target-desc", "measurement-label", "recorded-number"],
 "data": [
  ["Cc1ccc2c(c1)C=Cc1cc(C)ccc1C2c1cn(Cc2nc(C(=O)O)cs2)c(=O)[nH]c1=S", "hP2Y2R (Homo sapiens)", "Kb", 372],
  ["Cc1ccc2c(c1)C=Cc1cc(C)ccc1C2c1cn(Cc2nc(C(=O)Nc3nnn[nH]3)cs2)c(=O)[nH]c1=S", "hP2Y2R (Homo sapiens)", "Kb", 77.6],
  ["Cc1nc2c(s1)C=Cc1cc(Cl)ccc1C2c1cn(C)c(=O)[nH]c1=S (stereo not shown)", "hP2Y2R (Homo sapiens)", "Kb", 1020]
]}

Bench note: what Kb did Cc1nc2c(s1)C=Cc1cc(Cl)ccc1C2c1cn(Cc2nc(C(=O)Nc3nnn[nH]3)cs2)c(=O)[nH]c1=S (stereo not shown) show?
331

###

target-desc: hP2Y2R (Homo sapiens)
Construct: The 1321N1 cells expressing wild-type P2Y2R (P2Y2R-1321N1) were gifted by Dr. Elizabeth Rosethorne; expressed in transfected cells; host or cells: 1321N1 astrocytoma cells (P2Y2R-1321N1), gifted
protocol-text: Calcium-mobilization assay in P2Y2-1321N1 cells (antagonism of UTPγS)
Assay type: cell-based
stated-conditions: Table 7; Gaddum equation, shift of agonist dose–response curve by a single antagonist concentration; mean ± SEM; read-out: pKb Ca2+ mobilization (converted)
# maps each entry to its Kb
Enter your answer as a number in nM; do not include the unit.

{"columns": ["compound", "recorded-number"],
 "data": [
  ["O=c1[nH]c(=S)c(C2c3ccccc3CCc3ccccc32)cn1[C@@H]1O[C@H](COP(=O)([O-])OP(=O)([O-])C(Cl)(Cl)P(=O)([O-])[O-])[C@@H](O)[C@H]1O.[Na+].[Na+].[Na+].[Na+] [Example 99, reference compound]", 257],
  ["Cc1ccc2c(c1)C=Cc1cc(C)ccc1C2c1cn(Cc2cc(C(=O)O)cc(C(=O)O)c2)c(=O)[nH]c1=S [Example 60]", 295]
]}

Bench note: what Kb did Cc1cc(C)n2c1C=C1C=CC(CCC(=O)NCCCCCC(=O)NCCNC(=O)CCNc3nc4c(s3)C=Cc3cc(Cl)ccc3C4c3cn(C)c(=O)[nH]c3=S)=[N+]1[B-]2(F)F (stereo not shown) [Example 86] show?
501

###

target-desc: hP2Y2R (Homo sapiens)
Construct: The 1321N1 cells expressing wild-type P2Y2R (P2Y2R-1321N1) were gifted by Dr. Elizabeth Rosethorne; expressed in transfected cells; host or cells: 1321N1 astrocytoma cells (P2Y2R-1321N1), gifted
protocol-text: Calcium-mobilization assay in P2Y2-1321N1 cells (antagonism of UTPγS)
Format: cell-based
stated-conditions: Table 2; Gaddum equation, shift of UTPγS concentration–response curve by a single antagonist concentration; mean ± SEM; read-out: hP2Y2 pKb (converted)
# maps each entry to its Kb
Enter your answer as a number in nM; do not include the unit.

{"columns": ["molecule", "Kb (nM)"],
 "data": [
  ["CCOCCNc1nc2c(s1)C=Cc1cc(Cl)ccc1C2c1cn(C)c(=O)[nH]c1=S (centres unmarked)", 186],
  ["Cn1cc(C2c3ccc(Cl)cc3C=Cc3sc(N)nc32)c(=S)[nH]c1=O (centres unmarked)", 275],
  ["CC(C)OCCNc1nc2c(s1)C=Cc1cc(Cl)ccc1C2c1cn(C)c(=O)[nH]c1=S (centres unmarked)", 324],
  ["COCCNc1nc2c(s1)C=Cc1cc(Cl)ccc1C2c1cn(C)c(=O)[nH]c1=S (racemic)", 251]
]}

Now take the following molecule into account.
Lab request: please report Kb under test system hP2Y2R (Homo sapiens) for COCCCNc1nc2c(s1)C=Cc1cc(Cl)ccc1C2c1cn(C)c(=O)[nH]c1=S (centres unmarked)
275
